Lck activity relative to control (100%), in vitro kinase assay, peptide 1 µM for assorted binders
TARGET UNDER TEST: Lck(h) (lymphocyte-specific protein tyrosine kinase) (human, UniProt P06239 1-509, limits assumed)
Sequence (P06239 whole entry): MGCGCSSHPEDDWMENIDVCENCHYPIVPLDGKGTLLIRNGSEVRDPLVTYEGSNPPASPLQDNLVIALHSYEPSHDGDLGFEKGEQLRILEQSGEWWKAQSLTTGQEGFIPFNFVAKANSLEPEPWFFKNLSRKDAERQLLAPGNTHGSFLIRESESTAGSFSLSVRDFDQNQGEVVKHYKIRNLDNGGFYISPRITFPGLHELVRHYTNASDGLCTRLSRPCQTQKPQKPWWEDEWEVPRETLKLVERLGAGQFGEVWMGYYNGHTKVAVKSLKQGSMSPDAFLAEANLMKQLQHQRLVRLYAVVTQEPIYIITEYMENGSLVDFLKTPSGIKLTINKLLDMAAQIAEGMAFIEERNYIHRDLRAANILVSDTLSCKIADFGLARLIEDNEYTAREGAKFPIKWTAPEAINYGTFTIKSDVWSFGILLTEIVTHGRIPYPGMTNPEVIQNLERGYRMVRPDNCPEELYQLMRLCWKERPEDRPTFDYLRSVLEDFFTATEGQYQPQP
PROCEDURE DETAILS: cell-based or functional assay
Where no end group is shown, it is not given here. [ ]: non-standard residue; d: D form.
ATTRIBUTE MEASURED: Lck activity relative to control (100%), in vitro kinase assay, peptide 1 µM

BINDER	DATA VALUE
RRRRRRRRRRRR-NH2 [RRRRRRRRRRRR (IK01200)]	401 % Lck activity relative to control
RRRRRRRRRHHHHHHHHHH-NH2 [RRRRRRRRR-HHHHHHHHHH (IK00910)]	348 % Lck activity relative to control
KKKKKKKKKK-NH2 [KKKKKKKKKK (10Lys)]	161 % increase in Lck activity
[dR][dR][dR][dR][dR][dR][dR][dR]-NH2 (N-terminus assumed; SMILES N=C(N)NCCC[C@@H](N)C(=O)N[C@H](CCCNC(=N)N)C(=O)N[C@H](CCCNC(=N)N)C(=O)N[C@H](CCCNC(=N)N)C(=O)N[C@H](CCCNC(=N)N)C(=O)N[C@H](CCCNC(=N)N)C(=O)N[C@H](CCCNC(=N)N)C(=O)N[C@H](CCCNC(=N)N)C(N)=O) [rrrrrrrr (IKD00800)]	80 % Lck activity relative to control
